Please find below Ki measurements for Alpha-1B adrenergic receptor (Rattus norvegicus, UniProt P15823), combined from several publications.
Each record is given class 1 if its reported Ki is strictly below 30 nM. Records at or above 30 nM are given class 0.

- compound: "CCN1CCCC1CNC(=O)c1cc(S(=O)(=O)CC)c(N)cc1OC (stereo unspecified)"
  assayedTarget: "Alpha-1B adrenergic receptor (Rattus norvegicus, UniProt P15823)"
  category: "class 0"
- compound: "NC1=NC2(CCc3ccccc3C2)CO1 (stereo unspecified)"
  assayedTarget: "Alpha-1B adrenergic receptor (Rattus norvegicus, UniProt P15823)"
  category: "class 0"
- compound: "OCC(CN1CCc2ccccc2C1)N1CCC(c2noc3cc(F)ccc23)CC1 (stereo unspecified)"
  assayedTarget: "Alpha-1B adrenergic receptor (Rattus norvegicus, UniProt P15823)"
  category: "class 1"
- compound: "COc1ccc2c(c1)CN(CC(CO)N1CCC(c3noc4cc(F)ccc34)CC1)C2 (stereo unspecified)"
  assayedTarget: "Alpha-1B adrenergic receptor (Rattus norvegicus, UniProt P15823)"
  category: "class 1"
- compound: "OCC(CN1Cc2cccc(F)c2C1)N1CCC(c2noc3cc(F)ccc23)CC1 (stereo unspecified)"
  assayedTarget: "Alpha-1B adrenergic receptor (Rattus norvegicus, UniProt P15823)"
  category: "class 0"

With those in mind, consider the next compound.
Lookup: Please state whether Ki is below 30 nM for COc1cccc(OC)c1OCCNCC1Oc2ccccc2OC1c1ccccc1 (stereo unspecified)
Found: class 1
